Tested on: DLD-1 colon
protocol summary: NCI tumour cell line growth inhibition, 48 h
For each record, write down the corresponding TGI.
One number for each entry, in µM.

molecule="Cc1cnc2c(c1)C(=O)C1=C(OC(C)(C)CC1O)C2=O (stereo not given)" assayed_system="DLD-1 colon" unit_of_measure=µM assay_result=33.5

# next molecule below
Ask | Form field - read-out: TGI; system: DLD-1 colon; submitted item: CC(CNCCCNCCNCCCNCO)[N+](=O)[O-] (stereo not given)
Reply | 14.4

----------
Can you tell me TGI for the items I'm about to list?
System: SF-295 CNS
protocol summary: NCI tumour cell line growth inhibition, 48 h

Below, each entry is followed by its recorded TGI result.
molecule=O=C(Cc1nc2ncccc2[nH]c1=O)c1c[nH]c2ccccc12 assayed_system="SF-295 CNS" property_measured=TGI assay_result="31.9 µM"
molecule="CC12CO[C@@](C)(CC(S(=O)(=O)c3ccccc3)C1)O2 (some centres not stated)" assayed_system="SF-295 CNS" property_measured=TGI assay_result="> 100 µM"
molecule=Oc1ccc(CCNCc2cc3c(cc2Br)OCO3)cc1 assayed_system="SF-295 CNS" property_measured=TGI assay_result="> 100 µM"

Parameter requested: TGI. Apply to each item below.
1. O=C(NCCN1CCCCC1)c1ccc(I)cc1
2. CCOc1ccc(N=NS(=O)(=O)O)cc1
3. COc1ccc(/C=C2/NC(=S)N=C2Cl)cc1
4. C=C(CC(=O)O)C(=O)O (tested in a mixture with another compound)

Reply |
["> 100 µM", "> 100 µM", "> 100 µM", "> 50 µg/mL"]

----------
Answer each item with its documented log10 of TGI.
Tested on: CAKI-1 renal
protocol summary: NCI tumour cell line growth inhibition, 48 h
Please note: log10 values; quantity TGI; unit µM.

compound="Nc1nc(N)c2c(n1)NC(c1ccccc1)C1CCc3ccccc3C1=N2 (centres undefined)" assayed_system="CAKI-1 renal" assay_result=1.26

Items follow; give log10 of TGI for each.
1. NC(=O)/C=c1/c2ccccc2n2nc3ccccc3c12
2. OCCNCCCOc1ccc2ncnc(Nc3ccc(Oc4cccc(C(F)(F)F)c4)c(Cl)c3)c2c1

Reply |
1.92
1.06

Required: log10 of TGI, one value per compound below.
1. C[C@@H]1C2=CC[C@@]3(C)C(CCC3[C@H](C)[C@H]3C[C@@]4(C)O[C@@](c5cccnc5)(O3)OC4(C)C)[C@@H]2C2OC2[C@@]12CCC(=O)O2 (some centres undefined)
2. COc1ccc(/C=C2\Sc3nnc(CNc4ccc(Cl)cc4)n3N=C2c2cc(F)c(Cl)cc2Cl)cc1OC
3. O=c1oc2ccc(Cl)cc2cc1-c1cn2ccccc2n1
4. C[C@]12CC[C@H]3[C@@H](C[C@@H]4SC(Nc5ccccc5)=N[C@@]45CC(O)CC[C@]35C)[C@@H]1CCC2O (some centres undefined)
5. CC(C)(C)c1cc(OCc2nnc3sc(=S)[nH]n23)c(Cl)cc1OCc1nnc2sc(=S)[nH]n12

Reply |
1: 1.90; 2: 1.91; 3: 1.66; 4: 0.75; 5: 1.91

----------
Kindly state TGI for each of the entries shown.
Test system: MDA-MB-231 breast
protocol summary: NCI tumour cell line growth inhibition, 48 h
Give bare numbers, in µM.

compound=CCOC(=O)c1c(C)nc2c(c1N)CC(=O)N2CCc1ccccc1 assay_result=14
compound="C=C(C)C(O)C(O)C[C@@H](C)C1CC[C@]23C[C@]12CCC1[C@@]2(C)CCC(OC(C)=O)C(C)(C)C2CC(OC2OC(CO)C(O)C(O)C2O)[C@]13C (stereo not given in full)" assay_result=28.2

Please find the next compound below.
Ask | Given Cc1ccc(C2=Nc3c(N)ncnc3NC(c3ccc4c(c3)OCO4)C2)cc1 (stereo not given) , state its recorded TGI.
Reply | 19.5

----------
System: SNB-19 CNS
protocol summary: NCI tumour cell line growth inhibition, 48 h
Record form. Attribute: TGI. Fill in for each entry.

Examples from the recorded data:
compound=CCOc1ccc(N=NS(=O)(=O)O)cc1 assay_result="> 100 µM"
compound="C=C(CC(=O)O)C(=O)O (tested in a mixture with another compound)" assay_result="> 50 µg/mL"
compound=Cc1c(N/C=C(\C#N)C(=O)c2ccc(Cl)cc2)c(=O)n(-c2ccccc2)n1C assay_result="> 100 µM"
compound=O=C(N/N=C/c1ccccc1O)c1ccccc1Nc1ccccc1C(=O)N/N=C/c1ccccc1O assay_result="> 100 µM"

Ask | Given the entry Cc1ccc(NC(=S)SCCC(=O)O)cc1 , what TGI was observed with SNB-19 CNS?
Reply | > 100 µM

----------
So I've got a bunch of molecules here, and I need their GI50 values.
Test system: SK-MEL-5 melanoma
protocol summary: NCI tumour cell line growth inhibition, 48 h

molecule="Nc1nc(N)c2c(n1)NC(c1ccccc1)C1CCc3ccccc3C1=N2 (stereo not given)" property_measured=GI50 assay_result="638 nM"

Would you mind giving GI50 for every molecule in the list below?
1. O=[n+]1c2ccccc2n([O-])c2cc(Cl)ccc21
2. N=C(N)c1ccc(-c2ccc(-c3cccs3)s2)s1
3. CN1CCN(Cc2ccc(NC(=O)c3cncc(C#Cc4cncc5nccnc45)c3)cc2C(F)(F)F)CC1
4. COCCN1CCN(Cc2ccc(-c3n[nH]c4c3C(=O)c3c(NC(=O)NN5CCOCC5)cccc3-4)cc2)CC1

Reply |
["9110 nM", "1020 nM", "2610 nM", "26.9 nM"]

----------
System: NCI-H522 lung
protocol summary: NCI tumour cell line growth inhibition, 48 h
# label = YES if TGI >= 20 µM else NO

compound="CCOC(=O)CCC(NC(=O)OCc1ccccc1)C(=O)NC(CCC(=O)OCC)C(=O)NNC(=O)OC(C)(C)C (configuration not stated)" assayed_system="NCI-H522 lung" class=YES
compound="Cc1cc(=O)[nH]c(NNC(C#N)c2c(O)ccc3ccccc23)n1 (configuration not stated)" assayed_system="NCI-H522 lung" class=YES
compound=O=[N+]([O-])c1ccc(/C=C/c2csnn2)cc1 assayed_system="NCI-H522 lung" class=YES

Ask | Identify whether the reported TGI of the following compound is 20 µM or greater: C=C(C)C(O)C(O)C[C@@H](C)C1CC[C@]23C[C@]12CCC1[C@@]2(C)CCC(OC(C)=O)C(C)(C)C2CC(OC2OC(CO)C(O)C(O)C2O)[C@]13C (some centres not stated)
Reply | YES

Ask | N=C(N)c1ccc(-c2ccc(-c3cccs3)s2)s1 ?
Reply | NO

Ask | // query: NC(Cc1ccc(S(=O)(=O)O)cc1)C(=O)NC(Cc1ccc(S(=O)(=O)O)cc1)C(=O)NC(Cc1ccc(S(=O)(=O)O)cc1)C(=O)O (configuration not stated)
Reply | YES

Ask | Try O=C(NC(Nc1ccc(F)cc1)(C(F)(F)F)C(F)(F)F)C(C(F)(F)F)C(F)(F)F next.
Reply | YES

Ask | Could you do the same for O=C1C(=O)c2ccccc2C(O)=C1CCCc1ccc(C2CCCCCC2)cc1 , please?
Reply | YES

----------
Tested on: LOX IMVI melanoma
protocol summary: NCI tumour cell line growth inhibition, 48 h
property measured: GI50

compound=COc1cc(N2CCN(C(C)C)CC2)ccc1Nc1nc(Nc2cccc(F)c2C(=O)O)c2cc[nH]c2n1 assay_result="> 25 µM"
compound=COc1cc(-c2cc(/C=C/C(=O)c3ccc(Cl)c(Cl)c3)[nH]n2)cc(OC)c1OC assay_result="3.39 µM"
compound=C[CH2][Ge]([CH2]C)([CH2]C)[O]C(=O)CCC(=O)[O][Ge]([CH2]C)([CH2]C)[CH2]C assay_result="58 µM"
compound="COc1cc(C2C3=C(COC3=O)Nc3c2ccc2c3CCCC2)cc2c1OCO2 (configuration not stated)" assay_result="0.0652 µM"
compound=Cc1cc(C(=O)O)c(C)n1-c1cccc(C(=O)O)c1 assay_result="> 100 µM"

Could you report GI50 for every entry in the following list?
1. CCN(CC)CCN(Cc1ccc(F)cc1)c1ccc(CO)c(Cl)c1
2. Cc1ccc(C2=C(c3ccc(C)cc3)C3(c4ccc(C)cc4)C4C(=O)c5ccccc5C(=O)C4C2(c2ccc(C)cc2)S3=O)cc1 (configuration not stated)
3. c1cncc(C2Nc3cccc4cccc(c34)N2)c1
4. Nc1nc(N)c2c(n1)NC(c1ccccc1)C1CCc3ccccc3C1=N2 (configuration not stated)
5. C=CC/C(=C\COP(=O)(OCc1ccc([N+](=O)[O-])o1)N(C)CCCCCl)CC/C=C(\C)CCC=C(C)C (configuration not stated)
6. O=S1(=O)CS(=O)(=O)OCCO1
7. O=C1Nc2ccccc2/C1=C\c1nc(C2CCN(S(=O)(=O)c3ccc(F)cc3)CC2)n2ccccc12

Reply |
["21.1 µM", "> 100 µM", "21.7 µM", "3.79 µM", "13.8 µM", "29.7 µM", "2.58 µM"]

Numbers sourced from PubChem BioAssay (NCI).
